measurement.notes: soluble on expression in E. coli; label from the status in PepcDB or PDB records
value.type: soluble on expression in E. coli

Past entries and their recorded results:
seq.string	value.type	result
MRKILITGGAGFIGSALVRYIINETSDAVVVVDKLTYAGNLMSLAPVAQSERFAFEKVDICDRAELARVFTEHQPDCVMHLAAESHVDRSIDGPAAFIETNIVGTYTLLEAARAYWNALTEDKKSAFRFHHISTDEVYGDLHSTDDFFTETTPYAPSSPYSASKASSDHLVRAWLRTYGLPTLITNCSNNYGPYHFPEKLIPLMILNALAGKSLPVYGNGQQIRDWLYVEDHARALYCVATTGKVGETYNIGGHNERKNLDVVETICELLEELAPNKPHGVAHYRDLITFVADRPGHDLRYAIDASKIARELGCVPQETFESGMRKTVQWYLANESWWKQVQDGSYQGERLGLKG	soluble on expression in E. coli	soluble
MSLSLDQESIEHDLKLTSEEIFHSNGKYIPPMLNTLGQHLSVRKEFFQNFLTFVAKNFNYKISPELKLDLIEKFEILNCCIKFNSIIRQSDVLNDIWEKTLSNYNLTQNEHLTTKTVVINSPDVFPVIFKQFLNHVVFVLFPSQNQNFKLNVTNLINLCFYDGILEEGEKTIRYELLELDPMEVDTSKLPWFINFDYLNCINQCFFDFTFACEEEGSLDSYKEGLLKIVKILYYQFNQFKIWINTQPVKSVNANDNFININNLYDDNHLDWNHVLCKVNLKEQCIQIAEFYKDLSGLVQTLQTLDEGHHHHHH	soluble on expression in E. coli	not soluble
MEESINQNPEAMEALISNLFGNISSLKSAYIELQSAHTPYDPEKIQAADKVVISELKNLSEMKHFYRENNPKPVCVSPQDSRLAAEIQEQQSLLKTYEVMVKKFQSEIQNKDSEITQMLQKIEEANQKRLKLEKNLKLRGMSTNQGSGGDGNLQFPDLTTELFVSTYEAAAKVVHDFSKPLINMMKAAGWDLDTAANSIEPDVVYAKRPHKEYAFESYICQRMFSGFQQKNFSVNSESATVMADDDTDTFFRQFLALKDMDPLDALDQRDYVTGGGHPRTAFYQAFLKLAKSIWILHKLAYSFDPAAKIFQVKKGSEFSDSYMESVVKNIH	soluble on expression in E. coli	soluble
VSDGEQAKSRRRRGRRRGRRAAATAENHMDAQPAGDATPTPATAKRSRSRSPRRGSTRMRTVHETSAGGLVIDGIDGPRDAQVAALIGRVDRRGRLLWSLPKGHIELGETAEQTAIREVAEETGIRGSVLAALGRIDYWFVTDGRRVHKTVHHYLMRFLGGELSDEDLEVAEVAWVPIRELPSRLAYADERRLAEVADELIDKLQSDGPAALPPLPPSSPRRRPQTHSRARHADDSAPGQHNGPGPGP	soluble on expression in E. coli	not soluble
EDHEGRHMMAVLPANNKISLSRLNDEFNATFHLVKERMVYRLFTDCEHGAIPPIGSPYHMSTVCDERLANLEHVYLEAGDHETLIKLDRKAFKDLMNDCKYLRFSSEVLH	soluble on expression in E. coli	not soluble
MAHHHHHHMLNKGFTATKIIGKRCFQWWDNLNTSWKFAIGFSVLFPPLWNYNERRKAREKQVYYNKSIRDYVFFDIAIENKYVGRVLIGLYSDQVPLSVENFIQLAEGYKVKDKYIGYRNTFIHKIYPGIGLVGGNVLNDKEGLSIYGKKFPDENFDMEFVQDGDVALFNEGPHSNSSQFIITFSPMPILHKHNVVIGTVLKGMDIIRMIENVGTKLGNPMYNVKIINCGLYRSLEQDGPPFFNMMHISDKGNKNIISKKEFESLSEQQRQSLMEEIGKSEKRR	soluble on expression in E. coli	soluble
MLRHSPSLWELVEEHVPLRERREVKRILGEAAVDLSLELRAEVAMLRALLQEARSSQAPSSRPISDPSSLLAPPPLLKDLLRQELRQLLQGLRHKAICEGRDQAQAWVQYSPRVLHFALEEPRCDLPEQEIFQMRGGGPSSGHRDLSIIKDQLNVSNIDQVARHLRGLLEEECHTLEREILILQRCLEEEYLRPCHPSEAALEPTLAELKEQKKAMEQELQASVGPSCVSPNHRQRPLGSSTQGLRPPLPLCGVAPLQCCLPAPPLEPYLRPRGQSATHRWGRQLQCSPREGPASTPMSSAAPQAPA	soluble on expression in E. coli	soluble
MGSDKIHHHHHHMPVMDRAAMRTMATLQPSCMRWLCTTPSILDAAKAGWPISWAATPDSPATVTIRQFQASTCCRKKTFDVVVNTDVLEHVPEAELDCVLRDFRKLSTNAIIIPHLAKATRILPNGENAHCTIKTPSEWAQVFKRHYAHVYELPHHSAVHALFLCGDQERDVTALRGILEQYVAAKNEVRHHLLPLGKRIEKAIRLIRGKDINR	soluble on expression in E. coli	not soluble
METKYAFARQIIKEAGLFIKSKMSEQLDIQVKTQFDDLVTNVDQETQQLLMDRIHQTYPCDAILAEENDVRHPINQGNVWVIDPIDGTVNFIVQGSQFAVMIAYYEQGIGQFGLIYDVMADQLLAGGGDFEVTLNGDKLPAYQEKPLERSLIGCNAGMFARNDRNLAHLIAKTLGVRVYGGAGICMVKVMKQELLAYFSFIQPWDYAAAKVLGDKLGYVLLTIDGYEPDFQTRQKIMFVPKCQLTRIASFLTKDSAITLEDQ	soluble on expression in E. coli	not soluble
GPGSMDVARTMRATAGGKAFAVVAAEQTAGRGTGGRTWTSPKGNLYMTVGVPQLGQPPCLKEELVPVLPLICGLACRRAVLEVLHLDGALAKASVAADAAKAVATKWPNDIIYNHKKIGGTLIESDGDYLIIGIGMNIAVAPQMTDAGREATMINTIAEDFGVKSCPPRDLANAIWCHLFDICSSPEWTRELVIESFDKVMDKSLKLHKRLPGGRDPEELTAVSLNSWGHLKVRHADGTVEDLSAEYLF	soluble on expression in E. coli	not soluble

Lab note: next sequence to report on.
soluble on expression in E. coli for `MGSDKIHHHHHHMKEPLSLSFDEQMALFEERGMQMTSKDVEKLKVIGYYRIKQFAAPLANKKIVNENTVYDYKGIYFSDVLKRYYQDKNLRIHLLHAIEKIEVALKTWVAFILGEQYGAFGYLNFSEWCDKNRYSKFEIEKRQFFFKKDLLRATSRSCTEDIKLKKNKEKDNFPSIWLAVEVLTFGELVRLVEIMSTRNKRKLSKMFRCTDIELLSWLKCINFVRNACAHNANVIDLQLETKPVCRSDWKDYLYNVNKSNNGTPSNKLAIVIFIIKTLVTPINERYGWKNIRRNIARLVDSSDKNAHLLGFSDCASAYKVLEKSNGTTTKASLP` is not soluble
